Value source: ChEMBL document CHEMBL2040765

System: SW480
Method Summary: Growth inhibition of human SW480 cells after 72 hrs y MTT assay
Type: functional
Test Conditions: SW480, 72 h
Experimental Endpoint: GI50

Prompt: Provide GI50 value for the following compound: CC(C)O[C@H]1OC(=O)[C@H]2[C@@H]1[C@@H]1CC[C@H]2O1
Response: 94 µM

Prompt: Provide GI50 value for the following compound: CCCCCCO[C@@H]1OC(=O)[C@H]2[C@@H]1[C@@H]1CC[C@H]2O1
Response: > 100 µM

Prompt: Provide GI50 value for the following compound: O=C1O[C@H](OCCCOP(=O)(OCC(Cl)(Cl)Cl)OCC(Cl)(Cl)Cl)[C@@H]2[C@H]1[C@H]1CC[C@@H]2O1
Response: > 100 µM

Prompt: Provide GI50 value for the following compound: CCO[C@H]1OC(=O)[C@H]2[C@@H]1[C@@H]1CC[C@H]2O1
Response: > 100 µM

Prompt: Provide GI50 value for the following compound: CC(C)(C)O[C@H]1OC(=O)[C@H]2[C@@H]1[C@@H]1CC[C@H]2O1
Response: > 100 µM

Prompt: Provide GI50 value for the following compound: C=CCO[C@@H]1OC(=O)[C@H]2[C@@H]1[C@@H]1CC[C@H]2O1
Response: > 100 µM

Prompt: Provide GI50 value for the following compound: CCCCCCCCO[C@H]1OC(=O)[C@H]2[C@@H]1[C@@H]1CC[C@H]2O1
Response: 49 µM

Prompt: Provide GI50 value for the following compound: O=C1O[C@H](O)[C@@H]2[C@H]1[C@H]1CC[C@@H]2O1
Response: > 100 µM

Prompt: Provide GI50 value for the following compound: CCCCOC1OC(=O)[C@H]2[C@@H]1[C@@H]1CC[C@H]2O1 (single isomer, unassigned)
Response: > 100 µM

Prompt: Provide GI50 value for the following compound: CCCCCO[C@H]1OC(=O)[C@H]2[C@@H]1[C@@H]1CC[C@H]2O1
Response: 39 µM

====

Tested on: A-431
Method Summary: Growth inhibition of human A431 cells after 72 hrs y MTT assay
Assay type: functional
Test Conditions: A-431, 72 h
Experimental Endpoint: GI50

Prompt: Provide GI50 value for the following molecule: O=C1OC(=O)C2C3CCC(O3)C12 (stereo unspecified)
Response: 72 µM

Prompt: Provide GI50 value for the following molecule: CCCCCCCCO[C@H]1OC(=O)[C@H]2[C@@H]1[C@@H]1CC[C@H]2O1
Response: 72 µM

Prompt: Provide GI50 value for the following molecule: CCOP(=O)(OCC)OCCCO[C@H]1OC(=O)[C@H]2[C@@H]1[C@@H]1CC[C@H]2O1
Response: 87 µM

Prompt: Provide GI50 value for the following molecule: O=C1O[C@H](OC2CCCCC2)[C@@H]2[C@H]1[C@H]1CC[C@@H]2O1
Response: > 100 µM

Prompt: Provide GI50 value for the following molecule: CCO[C@H]1OC(=O)[C@H]2[C@@H]1[C@@H]1CC[C@H]2O1
Response: > 100 µM

Prompt: Provide GI50 value for the following molecule: C/C=C/CO[C@H]1OC(=O)[C@H]2[C@@H]1[C@@H]1CC[C@H]2O1
Response: > 100 µM

Prompt: Provide GI50 value for the following molecule: C=CCO[C@@H]1OC(=O)[C@H]2[C@@H]1[C@@H]1CC[C@H]2O1
Response: > 100 µM

Prompt: Provide GI50 value for the following molecule: O=C1O[C@H](OCCCOP(=O)(O)O)[C@@H]2[C@H]1[C@H]1CC[C@@H]2O1
Response: 52 µM

Prompt: Provide GI50 value for the following molecule: C=CCO[C@H]1OC(=O)[C@H]2[C@@H]1[C@@H]1CC[C@H]2O1
Response: > 100 µM

Prompt: Provide GI50 value for the following molecule: O=C1O[C@H](OCCCOP(=O)(OCC(Cl)(Cl)Cl)OCC(Cl)(Cl)Cl)[C@@H]2[C@H]1[C@H]1CC[C@@H]2O1
Response: > 100 µM

Prompt: Provide GI50 value for the following molecule: O=C1O[C@H](OCCCOP(=O)(Oc2ccccc2)Oc2ccccc2)[C@@H]2[C@H]1[C@H]1CC[C@@H]2O1
Response: > 100 µM
